Provide the reported MIC of each item.
tested on: Streptococcus pneumoniae; experiment: Antibacterial activity against erythromycin-resistant Streptococcus pneumoniae 07D201 by broth microdilution method; type: functional
Give bare numbers, in µg/mL.

Past entries and their recorded results:
STRUCTURE_AS_SMILES: CC[C@H]1OC(=O)[C@H](C)C(=O)[C@H](C)[C@@H](O[C@@H]2O[C@H](C)C[C@H](N(C)C)[C@H]2O)[C@@](C)(OC)C[C@@H](C)C(=O)[C@H](C)[C@H]2N(CCCSc3nc(-c4ccccc4)cs3)C(=O)O[C@]12C
MIC / µg/mL: 8

STRUCTURE_AS_SMILES: CC[C@H]1OC(=O)[C@H](C)C(=O)[C@H](C)[C@@H](O[C@@H]2O[C@H](C)C[C@H](N(C)C)[C@H]2O)[C@@](C)(OC)C[C@@H](C)C(=O)[C@H](C)[C@H]2N(CCCSc3nc(-c4cccnc4)c[nH]3)C(=O)O[C@]12C
MIC / µg/mL: 4

Input: Given the entry CC[C@H]1OC(=O)[C@H](C)C(=O)[C@H](C)[C@@H](O[C@@H]2O[C@H](C)C[C@H](N(C)C)[C@H]2O)[C@@](C)(OC)C[C@@H](C)C(=O)[C@H](C)[C@H]2N(CCCSc3nnc(C)s3)C(=O)O[C@]12C , report its measured MIC.
Output: 16

====

system: Streptococcus pneumoniae; experiment: Antibacterial activity against erythromycin-resistant Streptococcus pneumoniae 07D201 by broth microdilution method; format: functional
Provide the reported MIC of each item.

STRUCTURE_AS_SMILES: CC[C@H]1OC(=O)[C@H](C)C(=O)[C@H](C)[C@@H](O[C@@H]2O[C@H](C)C[C@H](N(C)C)[C@H]2O)[C@@](C)(OC)C[C@@H](C)C(=O)[C@H](C)[C@H]2N(CCCSc3ccoc3C)C(=O)O[C@]12C
RECORDED_VALUE: > 16 µg/mL

Please find the next compound below.
Input: Given the entry CC[C@H]1OC(=O)[C@H](C)C(=O)[C@H](C)[C@@H](O[C@@H]2O[C@H](C)C[C@H](N(C)C)[C@H]2O)[C@@](C)(OC)C[C@@H](C)C(=O)[C@H](C)[C@H]2N(CCCSc3nccc(C)n3)C(=O)O[C@]12C , report its measured MIC.
Output: > 32 µg/mL

====

system: Staphylococcus epidermidis; experiment: Antibacterial activity against methicillin-susceptible Staphylococcus epidermidis 07T202 by broth microdilution method; type: functional
Provide the reported MIC of each item.

STRUCTURE_AS_SMILES: CC[C@H]1OC(=O)[C@H](C)[C@@H](O[C@H]2C[C@@](C)(OC)[C@@H](O)[C@H](C)O2)[C@H](C)[C@@H](O[C@@H]2O[C@H](C)C[C@H](N(C)C)[C@H]2O)[C@](C)(OC)C[C@@H](C)C(=O)[C@H](C)[C@@H](O)[C@]1(C)O
MIC: > 32 µg/mL

STRUCTURE_AS_SMILES: CC[C@H]1OC(=O)[C@H](C)C(=O)[C@H](C)[C@@H](O[C@@H]2O[C@H](C)C[C@H](N(C)C)[C@H]2O)[C@](C)(OC)C[C@@H](C)C(=O)[C@H](C)[C@H]2N(CCCCn3cnc(-c4cccnc4)c3)C(=O)O[C@]12C
MIC: > 16 µg/mL

STRUCTURE_AS_SMILES: CC[C@H]1OC(=O)[C@H](C)C(=O)[C@H](C)[C@@H](O[C@@H]2O[C@H](C)C[C@H](N(C)C)[C@H]2O)[C@@](C)(OC)C[C@@H](C)C(=O)[C@H](C)[C@H]2N(CCCSc3ccoc3C)C(=O)O[C@]12C
MIC: > 16 µg/mL

Input: Find MIC (Staphylococcus epidermidis) for the entry CC[C@H]1OC(=O)[C@H](C)C(=O)[C@H](C)[C@@H](O[C@@H]2O[C@H](C)C[C@H](N(C)C)[C@H]2O)[C@@](C)(OC)C[C@@H](C)C(=O)[C@H](C)[C@H]2N(CCCSc3nc(-c4ccccc4)c(-c4ccccc4)o3)C(=O)O[C@]12C
Output: > 16 µg/mL

====

tested on: Streptococcus pneumoniae; assay: Antibacterial activity against erythromycin-susceptible Streptococcus pneumoniae ATCC 49619 by broth microdilution method; assay type: functional
MEASURED_ENDPOINT: MIC (µg/mL)
Answers are plain numbers, in µg/mL.

Input: Given the entry CC[C@H]1OC(=O)[C@H](C)C(=O)[C@H](C)[C@@H](O[C@@H]2O[C@H](C)C[C@H](N(C)C)[C@H]2O)[C@@](C)(OC)C[C@@H](C)C(=O)[C@H](C)[C@H]2N(CCCSc3nc(C)cc(C)n3)C(=O)O[C@]12C , report its measured MIC.
Output: 0.062

====

system: Staphylococcus epidermidis; test: Antibacterial activity against methicillin-susceptible Staphylococcus epidermidis 07T202 by broth microdilution method; assay type: functional
MEASURED_ENDPOINT: MIC

STRUCTURE_AS_SMILES: CC[C@H]1OC(=O)[C@H](C)C(=O)[C@H](C)[C@@H](O[C@@H]2O[C@H](C)C[C@H](N(C)C)[C@H]2O)[C@@](C)(OC)C[C@@H](C)C(=O)[C@H](C)[C@H]2N(CCCSc3nc4ccccc4[nH]3)C(=O)O[C@]12C
MEASURED_TARGET: Staphylococcus epidermidis
MEASURED_ENDPOINT: MIC
RECORDED_VALUE: > 16 µg/mL

Please find the next compound below.
Input: Given the entry CC[C@H]1OC(=O)[C@H](C)C(=O)[C@H](C)[C@@H](O[C@@H]2O[C@H](C)C[C@H](N(C)C)[C@H]2O)[C@@](C)(OC)C[C@@H](C)C(=O)[C@H](C)[C@H]2N(CCCSc3nnc(C)s3)C(=O)O[C@]12C , report its measured MIC.
Output: > 32 µg/mL

====

test system: Staphylococcus epidermidis; test: Antibacterial activity against methicillin-susceptible Staphylococcus epidermidis 07T202 by broth microdilution method; assay type: functional
MEASURED_ENDPOINT: MIC

STRUCTURE_AS_SMILES: CC[C@H]1OC(=O)[C@H](C)C(=O)[C@H](C)[C@@H](O[C@@H]2O[C@H](C)C[C@H](N(C)C)[C@H]2O)[C@@](C)(OC)C[C@@H](C)C(=O)[C@H](C)[C@H]2N(CCCSc3nc4cc(OC)ccc4s3)C(=O)O[C@]12C
MEASURED_ENDPOINT: MIC
RECORDED_VALUE: 16 µg/mL

Please find the next compound below.
Input: Given the entry CC[C@H]1OC(=O)[C@H](C)C(=O)[C@H](C)[C@@H](O[C@@H]2O[C@H](C)C[C@H](N(C)C)[C@H]2O)[C@@](C)(OC)C[C@@H](C)C(=O)[C@H](C)[C@H]2N(CCCSc3nc(C)cc(C)n3)C(=O)O[C@]12C , report its measured MIC.
Output: > 32 µg/mL

====

tested on: Streptococcus pneumoniae; test: Antibacterial activity against erythromycin-resistant Streptococcus pneumoniae 07D201 by broth microdilution method; type: functional
MEASURED_ENDPOINT: MIC (µg/mL)
Numbers only, in µg/mL.

Input: Given the entry CC[C@H]1OC(=O)[C@H](C)C(=O)[C@H](C)[C@@H](O[C@@H]2O[C@H](C)C[C@H](N(C)C)[C@H]2O)[C@](C)(OC)C[C@@H](C)C(=O)[C@H](C)[C@H]2N(CCCCn3cnc(-c4cccnc4)c3)C(=O)O[C@]12C , report its measured MIC.
Output: 1

====

Provide the reported MIC of each item.
system: Streptococcus pneumoniae; assay: Antibacterial activity against erythromycin-resistant Streptococcus pneumoniae 07D201 by broth microdilution method; type: functional

STRUCTURE_AS_SMILES: CC[C@H]1OC(=O)[C@H](C)C(=O)[C@H](C)[C@@H](O[C@@H]2O[C@H](C)C[C@H](N(C)C)[C@H]2O)[C@@](C)(OC)C[C@@H](C)C(=O)/C(C)=C/[C@]1(C)OC(=O)NCCCSc1nc2ccccc2o1
MEASURED_TARGET: Streptococcus pneumoniae
MIC: > 16 µg/mL
//
STRUCTURE_AS_SMILES: CC[C@H]1OC(=O)[C@H](C)C(=O)[C@H](C)[C@@H](O[C@@H]2O[C@H](C)C[C@H](N(C)C)[C@H]2O)[C@@](C)(OC)C[C@@H](C)C(=O)[C@H](C)[C@H]2N(CCCSc3nncs3)C(=O)O[C@]12C
MEASURED_TARGET: Streptococcus pneumoniae
MIC: > 16 µg/mL
//
STRUCTURE_AS_SMILES: CC[C@H]1OC(=O)[C@H](C)C(=O)[C@H](C)[C@@H](O[C@@H]2O[C@H](C)C[C@H](N(C)C)[C@H]2O)[C@@](C)(OC)C[C@@H](C)C(=O)[C@H](C)[C@H]2N(CCCSc3nnnn3C)C(=O)O[C@]12C
MEASURED_TARGET: Streptococcus pneumoniae
MIC: > 32 µg/mL

Input: Given the entry CC[C@H]1OC(=O)[C@H](C)C(=O)[C@H](C)[C@@H](O[C@@H]2O[C@H](C)C[C@H](N(C)C)[C@H]2O)[C@@](C)(OC)C[C@@H](C)C(=O)[C@H](C)[C@H]2N(CCCSc3nnnn3-c3ccccc3)C(=O)O[C@]12C , report its measured MIC.
Output: > 32 µg/mL

Origin of the recorded values: ChEMBL document CHEMBL1649395
